target: VEGFR‐2 (Homo sapiens, UniProt P35968)
Sequence (P35968 20-1356): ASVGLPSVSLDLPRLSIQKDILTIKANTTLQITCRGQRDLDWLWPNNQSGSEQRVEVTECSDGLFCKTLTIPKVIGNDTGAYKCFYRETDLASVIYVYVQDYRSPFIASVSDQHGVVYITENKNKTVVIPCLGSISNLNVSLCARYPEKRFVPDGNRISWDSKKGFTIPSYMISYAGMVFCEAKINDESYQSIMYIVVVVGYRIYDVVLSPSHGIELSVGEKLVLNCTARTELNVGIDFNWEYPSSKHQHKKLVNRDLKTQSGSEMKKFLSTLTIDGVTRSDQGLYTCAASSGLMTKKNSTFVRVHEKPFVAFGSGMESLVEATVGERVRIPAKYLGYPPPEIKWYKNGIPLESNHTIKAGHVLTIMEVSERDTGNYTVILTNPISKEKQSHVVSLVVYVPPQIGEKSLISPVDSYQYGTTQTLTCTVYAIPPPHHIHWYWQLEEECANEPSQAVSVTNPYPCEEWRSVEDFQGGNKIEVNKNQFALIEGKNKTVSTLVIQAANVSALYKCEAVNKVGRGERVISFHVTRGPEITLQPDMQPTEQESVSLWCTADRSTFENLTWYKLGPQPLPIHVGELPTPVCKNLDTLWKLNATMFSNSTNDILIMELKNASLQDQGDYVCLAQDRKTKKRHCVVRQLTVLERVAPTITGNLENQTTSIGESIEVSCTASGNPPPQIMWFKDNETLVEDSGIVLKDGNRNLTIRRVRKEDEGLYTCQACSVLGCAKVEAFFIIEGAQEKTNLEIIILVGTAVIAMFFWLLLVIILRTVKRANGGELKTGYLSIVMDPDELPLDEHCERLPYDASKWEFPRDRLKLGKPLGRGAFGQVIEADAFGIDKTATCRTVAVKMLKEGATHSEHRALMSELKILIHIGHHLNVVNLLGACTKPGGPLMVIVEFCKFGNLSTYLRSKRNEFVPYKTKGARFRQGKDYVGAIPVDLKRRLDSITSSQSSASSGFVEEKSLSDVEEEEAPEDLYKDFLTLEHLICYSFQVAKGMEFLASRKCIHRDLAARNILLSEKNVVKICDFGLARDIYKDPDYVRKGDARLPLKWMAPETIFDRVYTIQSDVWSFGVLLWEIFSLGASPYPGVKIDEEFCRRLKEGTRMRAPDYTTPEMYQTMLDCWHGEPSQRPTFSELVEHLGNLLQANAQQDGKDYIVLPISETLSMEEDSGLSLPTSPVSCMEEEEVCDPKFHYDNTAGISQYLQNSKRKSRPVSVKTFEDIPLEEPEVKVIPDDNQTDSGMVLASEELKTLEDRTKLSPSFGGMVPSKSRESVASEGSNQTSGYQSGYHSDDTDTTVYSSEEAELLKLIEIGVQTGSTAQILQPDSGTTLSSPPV
reportedProperty: IC50 (nM)
Answers are plain numbers, in nM.

For the compound shown here, Cn1cnc2c1c(=O)n(CC(=O)Nc1ccc(C(=O)Nc3ccc(F)cc3)cc1)c(=O)n2C , give the reported IC50. 69
